STUDY SYSTEM: NDM-1 (Purified) (Klebsiella pneumoniae)
Sequence (C7C422 29-270 limits assumed): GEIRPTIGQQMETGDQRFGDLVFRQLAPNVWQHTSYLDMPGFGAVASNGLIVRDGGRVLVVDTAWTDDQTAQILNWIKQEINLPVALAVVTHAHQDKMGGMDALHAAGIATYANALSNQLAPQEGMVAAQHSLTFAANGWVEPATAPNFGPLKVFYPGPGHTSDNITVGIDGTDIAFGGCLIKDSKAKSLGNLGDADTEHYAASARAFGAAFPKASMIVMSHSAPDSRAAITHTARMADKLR
ASSAY PROTOCOL: In vitro β-lactamase inhibition screening, NDM-1
READOUT: Ki

Query: Return Ki for the following compound: O=C(Cc1ccccc1)N[C@@H]1C(=O)N[C@H]1N(OCc1ccccc1)C(=O)c1ccccc1 [Compound 18]
Result: > 160 µM

----------
STUDY SYSTEM: CTX-M-14 (Purified) (Escherichia coli)
ASSAY PROTOCOL: In vitro β-lactamase inhibition screening, CTX-M-14
READOUT: Ki (nM)
Supply the numeric figure in nM, leaving out any unit text.

Query: Return Ki for the following molecule: `O=C(Cc1ccccc1)N[C@@H]1C(=O)N[C@H]1N(OCc1ccccc1)C(=O)c1ccccc1`
Result: 50

Source listed as paper PMC4762374.
